Test system: UACC-257 melanoma
Assay: NCI tumour cell line growth inhibition, 48 h
Listing: TGI of selected compounds

Sample answers from the record:
>>> result("CCCCCCCCCCCCCCCCCC(=O)OCC(C[As](=O)(O)O)OC(=O)CCCCCCCCCCCCCCCCC (stereo unspecified)")
"> 100 µM"
>>> result("CC(CO)(CBr)COC(=O)c1cc(Br)c(N)c(Br)c1 (stereo unspecified)")
"> 100 µM"
>>> result("C[C@]12CC[C@H]3[C@@H](CCC4=CC(=O)CC[C@@]43C)[C@@H]1CC[C@@H]2C(=O)Nc1ccc([N+](=O)[O-])c(C(F)(F)F)c1")
"> 10 µM"
>>> result("CCC1c2[nH]c3ccccc3c2C[C@H]2C(=O)N3CCC[C@H]3C(=O)N12 (stereo partly specified)")
"> 100 µM"
>>> result("C/C=C1\\CNC1C(=O)O (stereo unspecified)")
"> 100 µM"

Tell me TGI reported for NC(=O)CCC(CCC(N)=O)(CCC(N)=O)[N+](=O)[O-]
> 100 µM

Tell me TGI reported for COc1ccc2nc3cc([N+](=O)[O-])ccc3c(Nc3ccc(S(=O)(=O)N=C(N)N)cc3)c2c1
> 100 µM

Tell me TGI reported for CC1OC(OC2C(CO)OC(O[C@H]3CC[C@@]4(C)C(=CC[C@H]5[C@@H]6C[C@@H]7O[C@](O)(CC[C@H](C)COC8OC(CO)C(O)C(O)C8O)[C@@H](C)[C@@H]7[C@@]6(C)CC[C@@H]54)C3)C(OC3OC(C)C(O)C(O)C3O)C2O)C(O)C(O)C1O (stereo partly specified)
> 49.9 µM

Tell me TGI reported for COC(=O)/C(=N\NC(=S)NN)C(C(=O)OC)C(=O)C(=O)Nc1cccc(C(F)(F)F)c1 (stereo unspecified)
> 100 µM

Tell me TGI reported for CC1=NN(c2cccc(Cl)c2)C(=N/c2nc3ccccc3s2)/C1=C\c1cccs1
> 100 µM

----------
Tested on: SNB-75 CNS
Assay: NCI tumour cell line growth inhibition, 48 h
Listing: TGI of selected compounds

>>> result("COc1cc2c(cc1OC)C1Cc3cc(OC)c(OC)cc3C(C2)O1")
"> 100 µM"
>>> result("COC(=O)c1cnn2c1ccc1ccccc12")
"> 100 µM"
>>> result("COc1ccccc1C(N)c1ccccc1 (stereo not drawn)")
"> 100 µM"
>>> result("C/C(=N/c1[nH]c(=O)cc2c1C(=O)CC2)N(C)C")
"> 200 µM"
>>> result("CCOC(=O)c1nnsc1NN=C(C)C")
"> 100 µM"
>>> result("O=C(O)CP(=O)(O)O")
"> 100 µM"
>>> result("CC1(C)CCCCCCC2CC2CCCCCC(C)(C)C1=O (stereo not drawn)")
"> 100 µM"
>>> result("C/C(=N\\Nc1nc2ccccc2s1)c1cnccn1")
"> 31.3 µM"
>>> result("CCOC(=O)N[C@@H]1C2CC(=O)C(O2)[C@@H]1OC (stereo partly drawn)")
"> 100 µM"
>>> result("COc1cc([C@H]2CC(=O)C[C@@H](c3cc(OC)c(OC)c(OC)c3)C23C(=O)c2ccccc2C3=O)cc(OC)c1OC")
"> 100 µM"

Tell me TGI reported for CN(C)C1(N(C)C)Oc2c(c(=O)n(C)c(=O)n2C)C(c2ccccc2Br)C1(F)F (stereo not drawn)
> 100 µM

Tell me TGI reported for O=C1CC[C@H](c2ccc(O)c3c2C(=O)[C@@H]2O[C@@H]2C3=O)c2cccc(O)c21
> 100 µM

Tell me TGI reported for C[C@H](N[C@H]1CCC[C@]1(O)C#Cc1ccc2c(c1)OCO2)c1ccccc1
> 25 µM
